system: honey bees (Apis melifera carnica, Pollman 1879); assay: Single dose acute oral toxicity test on adult worker honey bees; format: in vivo; conditions: single oral dose 0.155 nmol/bee, 48 h after application
Endpoint Name: % of surviving honey bees
Answer with the figure and its unit, nothing else.

Here is how some compounds turned out for % of surviving honey bees.
| Compound | Target Entity | % of surviving honey bees |
| --- | --- | --- |
| CC/C=C/[C@H]1CCC[C@H](OC2CCC(N(C)C)C(C)O2)[C@@H](C)C(=O)C2=C[C@@H]3[C@@H](C=C[C@@H]4C[C@@H](OC5OC(C)C(OC)C(OC)C5OC)C[C@@H]34)[C@@H]2CC(=O)O1 (stereo partly drawn) [butenyl spinosyn, Butenyl spinosyn α1, reference compound] | honey bees (Apis melifera carnica, Pollman 1879) | 18% |
| CC[C@H]1CCC[C@H](OC2CCC([N+](C)(C)COC(=O)OC(C)C)C(C)O2)[C@@H](C)C(=O)C2=C[C@@H]3[C@@H](C=C[C@@H]4C[C@@H](OC5OC(C)C(OC)C(OC)C5OC)C[C@@H]34)[C@@H]2CC(=O)O1 (some centres unmarked) | honey bees (Apis melifera carnica, Pollman 1879) | 68% |
| CC[C@H]1CCC[C@H](OC2CCC([N+](C)(C)COC(=O)C(C)(C)C)C(C)O2)[C@@H](C)C(=O)C2=C[C@@H]3[C@@H](C=C[C@@H]4C[C@@H](OC5OC(C)C(OC)C(OC)C5OC)C[C@@H]34)[C@@H]2CC(=O)O1 (some centres unmarked) | honey bees (Apis melifera carnica, Pollman 1879) | 42% |

Quick one: give measured % of surviving honey bees for CC/C=C/[C@H]1CCC[C@H](OC2CCC([N+](C)(C)COC(=O)OC(C)C)C(C)O2)[C@@H](C)C(=O)C2=C[C@@H]3[C@@H](C=C[C@@H]4C[C@@H](OC5OC(C)C(OC)C(OC)C5OC)C[C@@H]34)[C@@H]2CC(=O)O1 (some centres unmarked)
63%

Quick one: give measured % of surviving honey bees for CC/C=C/[C@H]1CCC[C@H](OC2CCC([N+](C)(C)COC(=O)C(C)(C)C)C(C)O2)[C@@H](C)C(=O)C2=C[C@@H]3[C@@H](C=C[C@@H]4C[C@@H](OC5OC(C)C(OC)C(OC)C5OC)C[C@@H]34)[C@@H]2CC(=O)O1 (some centres unmarked)
75%
